// values below are reported normalized GFP fluorescence
- Tested on: Staphylococcus aureus MW2 delta-mecA (mecA-)
- protocolDetails: normalized GFP fluorescence (growth of mecA- strain) (fraction of control range); higher = more growth of mecA- strain
- particulars: compound concentration: 150 uM; cefoxitin: subinhibitory; fluorescent label: GFP

- compound: "CNCCCN1c2ccccc2CCc2ccccc21"
  system: "Staphylococcus aureus MW2 delta-mecA (mecA-)"
  normalized GFP fluorescence: 0.0357
- compound: "CCN[C@H]1CN(CCCOC)S(=O)(=O)c2sc(S(N)(=O)=O)cc21"
  system: "Staphylococcus aureus MW2 delta-mecA (mecA-)"
  normalized GFP fluorescence: 0.268
- compound: "CCOc1ccc(Cc2cc([C@@H]3O[C@H](CO)[C@@H](O)[C@H](O)[C@H]3O)ccc2Cl)cc1 [Dapagliflozin]"
  system: "Staphylococcus aureus MW2 delta-mecA (mecA-)"
  normalized GFP fluorescence: 0.454
- compound: "CC(=O)CCCCn1c(=O)c2c(ncn2C)n(C)c1=O"
  system: "Staphylococcus aureus MW2 delta-mecA (mecA-)"
  normalized GFP fluorescence: 0.276
- compound: "Cc1onc(-c2ccccc2)c1-c1ccc(S(N)(=O)=O)cc1 [Valdecoxib]"
  system: "Staphylococcus aureus MW2 delta-mecA (mecA-)"
  normalized GFP fluorescence: 0.291
- compound: "C[C@@H]1O[C@@H]1P(=O)(O)O"
  system: "Staphylococcus aureus MW2 delta-mecA (mecA-)"
  normalized GFP fluorescence: 0.142
- compound: "CC1=NN(c2ccc(C)c(C)c2)C(=O)/C1=N\\Nc1cccc(-c2cccc(C(=O)O)c2)c1O"
  system: "Staphylococcus aureus MW2 delta-mecA (mecA-)"
  normalized GFP fluorescence: -0.0259
- compound: "CN(C)CCOC(c1ccc(Cl)cc1)c1ccccn1 (stereo unspecified)"
  system: "Staphylococcus aureus MW2 delta-mecA (mecA-)"
  normalized GFP fluorescence: 0.55
- compound: "CCCc1nn(C)c2c(=O)[nH]c(-c3cc(S(=O)(=O)N4CCN(C)CC4)ccc3OCC)nc12"
  system: "Staphylococcus aureus MW2 delta-mecA (mecA-)"
  normalized GFP fluorescence: 0.331
- compound: "CCCCNc1cc(C(=O)O)cc(S(N)(=O)=O)c1Oc1ccccc1"
  system: "Staphylococcus aureus MW2 delta-mecA (mecA-)"
  normalized GFP fluorescence: 0.446
- compound: "COc1c2occc2cc2ccc(=O)oc12"
  system: "Staphylococcus aureus MW2 delta-mecA (mecA-)"
  normalized GFP fluorescence: 0.476

====

// values below are reported normalized GFP fluorescence
- System: Staphylococcus aureus MW2 delta-mecA (mecA-)
- protocolDetails: normalized GFP fluorescence (growth of mecA- strain) (fraction of control range); higher = more growth of mecA- strain
- particulars: compound concentration: 150 uM; cefoxitin: subinhibitory; fluorescent label: GFP

- molecule: "Cc1cn(-c2cc(NC(=O)c3ccc(C)c(Nc4nccc(-c5cccnc5)n4)c3)cc(C(F)(F)F)c2)cn1 [Nilotinib (AMN-107)]"
  system: "Staphylococcus aureus MW2 delta-mecA (mecA-)"
  normalized GFP fluorescence: 0.547
- molecule: "CO[C@@]1(NC(=O)CSCC#N)C(=O)N2C(C(=O)O)=C(CSc3nnnn3C)CS[C@@H]21"
  system: "Staphylococcus aureus MW2 delta-mecA (mecA-)"
  normalized GFP fluorescence: 0.268
- molecule: "CS(=O)(=O)c1ccc(C2=C(c3ccccc3)C(=O)OC2)cc1"
  system: "Staphylococcus aureus MW2 delta-mecA (mecA-)"
  normalized GFP fluorescence: 0.195
- molecule: "CC(=O)OCC(=O)[C@@]12OC3(CCCC3)O[C@@H]1C[C@H]1[C@@H]3CCC4=CC(=O)C=C[C@]4(C)[C@@]3(F)[C@@H](O)C[C@@]12C"
  system: "Staphylococcus aureus MW2 delta-mecA (mecA-)"
  normalized GFP fluorescence: 0.197
